- measurementTarget: T1, influenza virus (A/PR/8/34) HA (hemagglutinin) peptide on HLA-DRA*01:01 / HLA-DRB1*07:01 (human)
- T1 peptide: PKYVKQNTLKLAT
- measurementProtocol: cytokine release
observable: binding result

See these solved cases before continuing.
hybrid TCR: 3BC6.6 TCRA with JS515.11 TCRB (TCR, V domains shown) Valpha: QSVTQLGSHVSVSEGALVLLRCNYSSSVPPYLFWYVQYPNQGLQLLLKYTSAATLVKGINGFEAEFKKSETSFHLTKPSAHMSDAAEYFCAVSEDTSYDKVIFGPGTSLSVIP Vbeta: DVKVTQSSRYLVKRTGEKVFLECVQDMDHENMFWYRQDPGLGLRLIYFSYDVEMKEKGDIPEGYSVSREKKERFSLILESASTNQTSMYLCASSPGTSGTTYEQYFGPGTRLTVT = no recognition
JS515.11 TCR with Gly-52 substituted with Ala in CDR2 of the alpha chain (TCR, V domains shown) Valpha: QSVTQLGSHVSVSEGALVLLRCNYSSSVPPYLFWYVQYPNQGLQLLLKYTTAATLVKGINGFEAEFKKSETSFHLTKPSAHMSDAAEYFCAVSEGGGSEKLVFGKGTKLTVNP Vbeta: DVKVTQSSRYLVKRTGEKVFLECVQDMDHENMFWYRQDPGLGLRLIYFSYDVEMKEKGDIPEGYSVSREKKERFSLILESASTNQTSMYLCASSPGTSGTTYEQYFGPGTRLTVT = recognises
JS515.11 TCR (TCR, V domains shown) Valpha: QSVTQLGSHVSVSEGALVLLRCNYSSSVPPYLFWYVQYPNQGLQLLLKYTTGATLVKGINGFEAEFKKSETSFHLTKPSAHMSDAAEYFCAVSEGGGSEKLVFGKGTKLTVNP Vbeta: DVKVTQSSRYLVKRTGEKVFLECVQDMDHENMFWYRQDPGLGLRLIYFSYDVEMKEKGDIPEGYSVSREKKERFSLILESASTNQTSMYLCASSPGTSGTTYEQYFGPGTRLTVT = recognises
3BC6.6 TCR (TCR, V domains shown) Valpha: QSVTQLGSHVSVSEGALVLLRCNYSSSVPPYLFWYVQYPNQGLQLLLKYTSAATLVKGINGFEAEFKKSETSFHLTKPSAHMSDAAEYFCAVSEDTSYDKVIFGPGTSLSVIP Vbeta: DVKVTQSSRYLVKRTGEKVFLECVQDMDHENMFWYRQDPGLGLRLIYFSYDVEMKEKGDIPEGYSVSREKKERFSLILESASTNQTSMYLCASSLTTSGYTFGSGTRLTVV = no recognition
JS515.11 TCR with Thr-51 substituted with Ser in CDR2 of the alpha chain (TCR, V domains shown) Valpha: QSVTQLGSHVSVSEGALVLLRCNYSSSVPPYLFWYVQYPNQGLQLLLKYTSGATLVKGINGFEAEFKKSETSFHLTKPSAHMSDAAEYFCAVSEGGGSEKLVFGKGTKLTVNP Vbeta: DVKVTQSSRYLVKRTGEKVFLECVQDMDHENMFWYRQDPGLGLRLIYFSYDVEMKEKGDIPEGYSVSREKKERFSLILESASTNQTSMYLCASSPGTSGTTYEQYFGPGTRLTVT = recognises

Query :: Given the binder hybrid TCR: JS515.11 TCRA with 3BC6.6 TCRB (TCR, V domains shown) Valpha: QSVTQLGSHVSVSEGALVLLRCNYSSSVPPYLFWYVQYPNQGLQLLLKYTTGATLVKGINGFEAEFKKSETSFHLTKPSAHMSDAAEYFCAVSEGGGSEKLVFGKGTKLTVNP Vbeta: DVKVTQSSRYLVKRTGEKVFLECVQDMDHENMFWYRQDPGLGLRLIYFSYDVEMKEKGDIPEGYSVSREKKERFSLILESASTNQTSMYLCASSLTTSGYTFGSGTRLTVV , what is its reported binding result?
Result :: no recognition
